target: 11β-HSD1 (Homo sapiens, UniProt P28845); assay: Human keratinocytes assay: 11β-HSD1 activity (cortisone to cortisol); type: cell-based; details: 48 h
Sequence (P28845 whole entry): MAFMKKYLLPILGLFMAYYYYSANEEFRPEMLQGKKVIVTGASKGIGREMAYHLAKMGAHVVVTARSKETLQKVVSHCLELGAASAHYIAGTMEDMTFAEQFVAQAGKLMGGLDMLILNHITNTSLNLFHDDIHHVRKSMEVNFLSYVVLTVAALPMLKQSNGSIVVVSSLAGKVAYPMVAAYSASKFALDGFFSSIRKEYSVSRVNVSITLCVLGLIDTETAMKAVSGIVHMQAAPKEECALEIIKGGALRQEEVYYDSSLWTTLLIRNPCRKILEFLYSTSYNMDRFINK
Listed here are compounds together with their documented remaining activity at 0.03162 µM.
REPORTED_METRIC: remaining activity at 0.03162 µM (%)

> print(dat)
                                   compound                   reported.metric  result
1  O=C(c1cccc(-c2ccccc2)c1)N1CCCCCC1 [IV-f]  remaining activity at 0.03162 µM      28
2  Cc1ccc(-c2cccc(C(=O)N3CCCCCC3)c2)cc1F [IV-a]  remaining activity at 0.03162 µM       8
3  Cc1ccc(-c2cccc(C(=O)N3CCOC(C)(C)C3)c2)cc1F [III-a]  remaining activity at 0.03162 µM       3
4  CC1CCN(C(=O)c2cccc(-c3ccccc3Cl)c2)CC1 [II-e]  remaining activity at 0.03162 µM      21
5  Cc1ccc(-c2cccc(C(=O)N3CCCCCC3)c2)cc1 [IV-c]  remaining activity at 0.03162 µM       9
